Where do these numbers come from? They come from patent US20240010721A1.

- measurement-target: T1, hROR2ECD-his (human, UniProt Q01974 34-403)
- T1 construct: extracellular domain; bought, Acrobiosystems R02-H52E5; also called huROR2-his
- T1 sequence (Q01974 34-403): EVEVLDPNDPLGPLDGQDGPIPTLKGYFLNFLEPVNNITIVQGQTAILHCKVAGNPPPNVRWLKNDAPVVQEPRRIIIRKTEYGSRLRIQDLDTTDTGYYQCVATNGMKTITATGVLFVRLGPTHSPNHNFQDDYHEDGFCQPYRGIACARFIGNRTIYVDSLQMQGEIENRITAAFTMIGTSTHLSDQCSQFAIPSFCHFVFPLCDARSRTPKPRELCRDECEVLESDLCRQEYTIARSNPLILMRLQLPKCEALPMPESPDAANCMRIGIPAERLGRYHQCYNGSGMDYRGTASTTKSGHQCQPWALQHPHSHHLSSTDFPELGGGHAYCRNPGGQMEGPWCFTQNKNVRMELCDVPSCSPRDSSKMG
- protocol-details: ELISA, plate coated with hROR2 ECD-his
List of ELISA signal (called MFI) values.
Lab note: record just the number, no unit beside it.

// solved cases for ELISA signal (called MFI) follow
binder="Positive control antibody (PR000374) (antibody, human IgG1, kappa, V domains shown) VH: EVQLVESGGGLVQPGRSLRLSCTASGSDINDYPITWVRQAPGQGLEWIGFINSGGSTWYASWVKGRFTISRDDSKSIAYLQMNSLKTEDTAVYYCARGYSTYYRDFNIWGQGTLVTVSS VL: DIQMTQSPSSLSASVGDRVTINCQASQSIDSNLAWFQQKPGQPPKLLIYRASNLASGVPDRFSGSGSGTDFTLTISSLEAEDVATYYCLGGVGAVSYRTSFGGGTKVEIKR" data_value=0.022
binder="PR001362 (antibody, V domains shown, fully human IgG1, kappa) VH: QVQLVESGGGLVQPGGSLRLSCAASGFTFSTYGMHWVRQAPGKGLEWVAVIWYDGSDEDYADSVKGRFTISRDNSKNTLYLQMNSLRAEDTAVYYCARDQARSFDLWGRGTLVTVSS VL: DIVMTQSPSTLSASVGDRVTITCRASQSINSWLAWYQQKPGKAPKLLIYKASSLESGVPSRFSGSGSGTEFTLTISSLQPDDFATYYCQQYKSYSPMYTFGQGTKVEIKR" data_value=0.032

Request: Which measured ELISA signal (called MFI) value corresponds to PR001370 (antibody, V domains shown, fully human IgG1, kappa) VH: EVQLLESGGGVVQPGRSLRLSCAASGFTFSSYGMHWVRQAPGKGLEWVAVKWYDGISQNFADSVKGRFTISRDNSKNTLYLQMNSLRAEDTAVYYCARDLARSFDLWGRGTLVTVSS VL: DIVMTQSPSTLSASVGDRVTITCRASQSINNWLAWYQQKPGKAPKLLIYKASSLESGVPSRFSGSGSGTEFTLTISSLQPDDFATYYCQQYNSYSPMYTFGQGTKVDIKR ?
Result: 0.0335
